All figures here come from patent US9718825B2.

The following molecules are listed with their measured pIC50 values.
- Tested on: SGK-1 dependent phosphorylation of GSK3beta in U2OS cells
- procedure summary: SGK-1 dependent phosphorylation of GSK3beta in U2OS cells overexpressing recombinant SGK-1 and GSK3beta
- Type: cell-based, human
- condition summary: U2OS cells, 6 h incubation, ratio of phosphorylated GSK3beta to total GSK3beta; read-out: IC50 values for inhibition of SGK-1 dependent phosphorylation of GSK3beta in U2OS cells
// field semantics: pIC50 = negative decimal log of concentration (mol/L)

The examples below pair each entry with its known result.
Given the molecule "O=S(=O)(Nc1ccc(-c2nc(N[C@H]3CC[C@@H](O)CC3)c3cn[nH]c3n2)cc1)c1cc(Cl)ccc1F" , what is its reported pIC50?
5.44

Moving on to "COc1nc(-c2ccc(NS(=O)(=O)c3cc(Cl)cc(F)c3F)cc2)nc2[nH]ncc12"
6.10

Moving on to COc1ccc(F)c(S(=O)(=O)Nc2ccc(-c3nc(OC4CCNCC4F)c4c(C)n[nH]c4n3)cc2)c1 (stereo not drawn)
7.07

Moving on to "Cc1nc(-c2ccc(NS(=O)(=O)C3=CSCC=C3Br)cc2)nc2[nH]nc(N)c12"
6.22

Moving on to "O=S(=O)(Nc1ccc(-c2nc(O[C@H]3CC[C@@H](O)CC3)c3cn[nH]c3n2)cc1)c1cc(Cl)ccc1Cl"
6.35

---
Given the molecule Cc1n[nH]c2nc(-c3ccc(NS(=O)(=O)c4cc(Cl)ccc4Cl)cc3)nc(OCC3CNCCO3)c12 (stereo not drawn) , what is its reported pIC50?
7.33

====

- System: SGK-1 dependent phosphorylation of GSK3beta in U2OS cells
- procedure summary: SGK-1 dependent phosphorylation of GSK3beta in U2OS cells overexpressing recombinant SGK-1 and GSK3beta
- Format: cell-based, human
- condition summary: U2OS cells, 6 h incubation, ratio of phosphorylated GSK3beta to total GSK3beta; read-out: IC50 values for inhibition of SGK-1 dependent phosphorylation of GSK3beta in U2OS cells
// assign met if IC50 falls strictly below 300 nM, else not met (ties count as not met)

Does Cc1ccc(F)c(S(=O)(=O)Nc2ccc(-c3nc(OC4C[C@@H](O)C[C@@H](O)C4)c4cn[nH]c4n3)cc2)c1 (some centres unmarked) [Example 119] have IC50 strictly under 300 nM?
not met

Moving on to O=S(=O)(Nc1ccc(-c2nc(C3CC3)c3cn[nH]c3n2)cc1)c1cc(Cl)ccc1F [Example 141]
met

Moving on to Cc1nc(-c2ccc(NS(=O)(=O)c3cc(Cl)ccc3F)cc2)nc2[nH]nc(N)c12 [Example 466]
met

Moving on to O=S(=O)(Nc1ccc(-c2nc(O[C@@H]3CCCC[C@@H]3O)c3cn[nH]c3n2)cc1)c1cc(Cl)ccc1F (racemic) [Example 81]
not met

Moving on to Cc1ccc(C#N)c(S(=O)(=O)Nc2ccc(-c3nc(C4CCC(O)C4)c4c(C)n[nH]c4n3)cc2)c1 (centres unmarked) [Example 97]
not met

====

- target system: recombinant human SGK-1 enzyme (Homo sapiens, UniProt O00141)
- Sequence (O00141 whole entry, looked up): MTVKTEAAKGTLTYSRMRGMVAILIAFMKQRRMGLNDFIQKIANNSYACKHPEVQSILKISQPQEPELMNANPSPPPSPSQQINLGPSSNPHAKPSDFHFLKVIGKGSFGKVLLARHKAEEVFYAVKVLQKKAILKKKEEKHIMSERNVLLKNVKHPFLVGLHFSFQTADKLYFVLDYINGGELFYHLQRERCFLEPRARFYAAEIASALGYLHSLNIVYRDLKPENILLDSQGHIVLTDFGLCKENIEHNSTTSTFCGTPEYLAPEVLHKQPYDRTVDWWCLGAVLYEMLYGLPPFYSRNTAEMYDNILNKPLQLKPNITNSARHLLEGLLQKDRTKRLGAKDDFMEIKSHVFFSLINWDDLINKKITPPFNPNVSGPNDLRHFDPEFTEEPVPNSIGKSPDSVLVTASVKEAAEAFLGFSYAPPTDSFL
- procedure summary: Enzymatic activity assay: SGK-1 substrate peptide phosphorylation (Caliper lab-chip mobility shift)
- Assay type: biochemical
- condition summary: peptide substrate 1 μM, ATP 10 μM, 60 min at 37° C., read-out: IC50 values for inhibition of SGK-1 enzymatic activity
The following compounds are listed with their measured pIC50 values.
// field semantics: pIC50 = negative decimal log of concentration (mol/L)

Given the compound "CC(C)COc1nc(-c2ccc(NS(=O)(=O)c3cc(Cl)sc3Cl)cc2)nc2[nH]nc(N)c12" , what is its reported pIC50?
7.00

Moving on to "COCCc1nc(-c2ccc(NS(=O)(=O)c3cc(OC)ccc3C#N)cc2)nc2[nH]nc(N)c12"
7.19

Moving on to "O=S(=O)(Nc1ccc(-c2nc(O[C@@H]3CCC[C@H]3O)c3cn[nH]c3n2)cc1)c1cc(Cl)ccc1Cl"
8.17

Moving on to "O=C(Nc1n[nH]c2nc(-c3ccc(NS(=O)(=O)c4cc(Cl)ccc4Cl)cc3)ncc12)c1cccc(Cl)c1Cl"
7.96

---
Given the compound "Cc1ccc(C#N)c(S(=O)(=O)Nc2ccc(-c3nc(OCC(C)C)c4c(N)n[nH]c4n3)cc2)c1" , what is its reported pIC50?
7.85

Moving on to "N#Cc1ccc(Cl)cc1S(=O)(=O)Nc1ccc(-c2cc3[nH]nc(N)c3c(C(F)(F)F)n2)cc1"
8.70

Moving on to "COc1ccc(Oc2nc(-c3ccc(NS(=O)(=O)c4ccccc4F)cc3)cc3[nH]nc(C)c23)cn1"
7.43

Moving on to "Cc1ccc(C#N)c(S(=O)(=O)Nc2ccc(-c3nc(OC4CCN(CCF)CC4)c4c(C)n[nH]c4n3)cc2)c1"
8.42

Moving on to "COc1nc(-c2ccc(NS(=O)(=O)c3cc(Cl)ccc3F)cc2)nc2[nH]ncc12"
7.39

Moving on to Cc1n[nH]c2nc(-c3ccc(NS(=O)(=O)c4cc(F)ccc4F)cc3)nc(OC3CCC(O)CC3)c12 (stereo not drawn)
8.04

Moving on to "Cc1n[nH]c2nc(-c3ccc(NS(=O)(=O)c4cc(Cl)ccc4Cl)cc3)nc(OC3CCN(C(C)C)CC3)c12"
8.42

Moving on to "Nc1n[nH]c2cc(-c3ccc(NS(=O)(=O)c4cc(F)cc(F)c4Cl)cc3)ncc12"
7.02

====

- target system: recombinant human SGK-1 enzyme (Homo sapiens, UniProt O00141)
- procedure summary: Enzymatic activity assay: SGK-1 substrate peptide phosphorylation (Caliper lab-chip mobility shift)
- Type: biochemical
- condition summary: peptide substrate 1 μM, ATP 10 μM, 60 min at 37° C., read-out: IC50 values for inhibition of SGK-1 enzymatic activity
parameter measured: IC50

The examples below pair each entry with its known result.
Given the compound Cc1n[nH]c2nc(-c3ccc(NS(=O)(=O)c4cc(Cl)ccc4Cl)cc3)nc(OC3CCC(O)CC3)c12 (stereo not shown) [Example 214] , what is its reported IC50?
69 nM

Moving on to CCN1CCCC(Oc2nc(-c3ccc(NS(=O)(=O)c4cc(Cl)ccc4F)cc3)nc3[nH]nc(C)c23)C1 (stereo not shown) [Example 418]
40 nM

Moving on to COc1cc(Oc2nc(-c3ccc(NS(=O)(=O)c4cc(C)ccc4C#N)cc3)cc3[nH]nc(C)c23)ccn1 [Example 667]
11 nM

Moving on to COc1ccc(F)c(S(=O)(=O)Nc2ccc(-c3nc(OCC(F)(F)F)c4c(N)n[nH]c4n3)cc2)c1 [Example 197]
3 nM

Moving on to Cc1nc(-c2ccc(NS(=O)(=O)c3cc(F)c(F)cc3Cl)cc2)nc2[nH]nc(N)c12 [Example 170]
54 nM

Moving on to CCOc1nc(-c2ccc(NS(=O)(=O)c3cc(OC)ccc3Cl)cc2)cc2[nH]nc(C)c12 [Example 675]
15 nM

Moving on to Cc1n[nH]c2cc(-c3ccc(NS(=O)(=O)c4cc(Cl)ccc4F)cc3)nc(OCCC(=O)N(C)C)c12 [Example 687]
15 nM

Moving on to Cc1ccc(F)c(S(=O)(=O)Nc2ccc(-c3nc(OC4CCN(C(C)C)CC4)c4c(C)n[nH]c4n3)cc2)c1 [Example 353]
3.8 nM

Moving on to COc1ccc(Cl)c(S(=O)(=O)Nc2ccc(-c3nc(OCCCN)c4c(C)n[nH]c4n3)cc2)c1 [Example 212]
< 1.5 nM

Moving on to Nc1n[nH]c2nc(-c3ccc(NS(=O)(=O)c4cc(Cl)ccc4Cl)cc3)nc(OCC(F)(F)F)c12 [Example 195]
5.4 nM

Attention now turns to another entry.
Given the compound Cc1n[nH]c2nc(-c3ccc(NS(=O)(=O)c4cc(Cl)ccc4Cl)cc3)nc(OC3CCCNC3)c12 (stereo not shown) [Example 322] , what is its reported IC50?
2.6 nM

====

The following molecules are listed with their measured pIC50 values.
- target system: recombinant human SGK-1 enzyme (Homo sapiens, UniProt O00141)
- procedure summary: Enzymatic activity assay: SGK-1 substrate peptide phosphorylation (Caliper lab-chip mobility shift)
- Format: biochemical
- condition summary: peptide substrate 1 μM, ATP 10 μM, 60 min at 37° C., read-out: IC50 values for inhibition of SGK-1 enzymatic activity
pIC50: −log10 of the molar value.

Given the molecule COc1ccc(F)c(S(=O)(=O)Nc2ccc(-c3nc(OCCCN)c4cn[nH]c4n3)cc2)c1 [Example 219] , what is its reported pIC50?
> 8.82

Moving on to NCCCOc1nc(-c2ccc(NS(=O)(=O)c3cc(Cl)ccc3F)cc2)nc2[nH]ncc12 [Example 62]
> 8.92

Attention now turns to another entry.
Given the molecule O=S(=O)(Nc1ccc(-c2nc(N3CCNCC3)c3cn[nH]c3n2)cc1)c1cc(Cl)ccc1F [Example 16] , what is its reported pIC50?
> 8.92
